test: Acute toxicity, single administration; type: in vivo, nu/nu naked mice; settings: single administration i.v., aqueous solution
Test readout: Individual dose tolerated in mg/kg of mouse, i.v.

Compound	Experimental result
N[C@@H]1C=CC[C@@H]2CN(c3c(F)cc4c(=O)c(C(=O)O)cn(C5CC5)c4c3Cl)C[C@@H]21 (racemic) [Quinolone-a, reference compound]	< 25 mg/kg of mouse

Asked: Look up Individual dose tolerated in mg/kg of mouse, i.v.: C[C@@H]1O[C@H](Oc2ccc(NC(=S)N[C@H](C)C(=O)NC3C=CCC4CN(c5c(F)cc6c(=O)c(C(=O)O)cn(C7CC7)c6c5Cl)CC43)cc2)[C@@H](O)[C@H](OCC(=O)[O-])[C@@H]1O.[Na+] (some centres unmarked) [Example 12.3]
Given back: > 200 mg/kg of mouse

Asked: Let us now turn to CC(NC(=O)C(CCCCNC(=S)Nc1ccc(OC2OC(CO)C(O)C(OCC(=O)[O-])C2O)cc1)NC(=S)Nc1ccc(OC2OC(CO)C(O)C(OCC(=O)[O-])C2O)cc1)C(=O)Nc1ccc2nc3n(c(=O)c2c1)Cc1ccccc1-3.[Na+].[Na+] (centres unmarked) [Example 6.81]
Given back: > 400 mg/kg of mouse

Asked: Let us now turn to CC(NC(=O)C(N)CCCCNC(=S)Nc1ccc(OC2OC(CO)C(O)C(OCC(=O)[O-])C2O)cc1)C(=O)Nc1ccc2c(c1)CN1C(=O)c3ccccc3C1=N2.[Na+] (centres unmarked) [Example 3.33]
Given back: > 400 mg/kg of mouse

Asked: Let us now turn to CC(NC(=O)C(CCCCNC(=S)Nc1ccc(OC2OC(C)C(O)C(OCC(=O)[O-])C2O)cc1)NC(=S)Nc1ccc(OC2OC(C)C(O)C(OCC(=O)[O-])C2O)cc1)C(=O)Nc1ccc2nc3n(c(=O)c2c1)Cc1ccccc1-3.[Na+].[Na+] (centres unmarked) [Example 6.12]
Given back: > 400 mg/kg of mouse

The origin of these recorded values is patent US6271342A.
